Target: Inactive α-amylase (from swine pancreas) (Sus scrofa, UniProt P00690)
Construct: α-amylase derived from the swine pancreas; from tissue; host or cells: swine pancreas
Sequence (P00690 16-511): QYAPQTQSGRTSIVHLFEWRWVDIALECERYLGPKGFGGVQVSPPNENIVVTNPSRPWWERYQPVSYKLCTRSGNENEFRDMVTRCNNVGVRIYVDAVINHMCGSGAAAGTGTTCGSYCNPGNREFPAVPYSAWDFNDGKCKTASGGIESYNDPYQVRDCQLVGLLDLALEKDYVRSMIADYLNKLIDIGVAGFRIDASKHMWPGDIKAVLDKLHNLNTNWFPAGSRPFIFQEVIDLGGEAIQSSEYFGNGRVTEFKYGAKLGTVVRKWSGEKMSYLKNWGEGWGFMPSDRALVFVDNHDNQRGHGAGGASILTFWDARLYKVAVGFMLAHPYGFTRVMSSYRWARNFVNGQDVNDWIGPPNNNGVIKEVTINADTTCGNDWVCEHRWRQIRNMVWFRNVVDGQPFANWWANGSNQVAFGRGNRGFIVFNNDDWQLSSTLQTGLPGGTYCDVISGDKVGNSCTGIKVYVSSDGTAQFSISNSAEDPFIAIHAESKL
Experiment: Relative sensitivity in determination of calcium with 10 mg/dl calcium standard solution
Format: biochemical
Conditions: just after the preparation; 10 mg/dl calcium standard; agent 3 mM
reported endpoint: Relative sensitivity (%) when sensitivity in case of no addition is taken as 100%

OCC1OC(OCC2OC3OC4C(CO)OC(OC5C(CO)OC(OC6C(CO)OC(OC7C(CO)OC(OC8C(CO)OC(OC2C(O)C3O)C(O)C8O)C(O)C7O)C(O)C6O)C(O)C5O)C(O)C4O)C(O)C(O)C1O (stereo not shown) | 120.2
OCC1OC(OC2C(CO)OC(OCC3OC4OC5C(CO)OC(OC6C(CO)OC(OC7C(CO)OC(OC8C(CO)OC(OC9C(CO)OC(OC%10C(CO)OC(OC3C(O)C4O)C(O)C%10O)C(O)C9O)C(O)C8O)C(O)C7O)C(O)C6O)C(O)C5O)C(O)C2O)C(O)C(O)C1O (stereo not shown) | 120.7
OCC1OC(OC2C(CO)OC(OCC3OC4OC5C(CO)OC(OC6C(CO)OC(OC7C(CO)OC(OC8C(CO)OC(OC9C(CO)OC(OC3C(O)C4O)C(O)C9O)C(O)C8O)C(O)C7O)C(O)C6O)C(O)C5O)C(O)C2O)C(O)C(O)C1O (stereo not shown) | 123.0
OCC1OC(OCC2OC3OC4C(CO)OC(OC5C(CO)OC(OC6C(CO)OC(OC7C(CO)OC(OC8C(CO)OC(OC9C(CO)OC(OC2C(O)C3O)C(O)C9O)C(O)C8O)C(O)C7O)C(O)C6O)C(O)C5O)C(O)C4O)C(O)C(O)C1O (stereo not shown) | 128.6
